The measured values listed here are drawn from patent US20230233569A1.

biological target: KRAS G12S (Homo sapiens, UniProt P01116+P62937, G12S); assay: Disruption of BRAF RBD interaction with Ras (FRET / MOA assay, with Cyclophilin A); format: biochemical; conditions: read-out: KRAS G12S FRET data, IC50
Sequence (P01116 1-169 isoform P01116-2 G12S limits assumed, one chain of several): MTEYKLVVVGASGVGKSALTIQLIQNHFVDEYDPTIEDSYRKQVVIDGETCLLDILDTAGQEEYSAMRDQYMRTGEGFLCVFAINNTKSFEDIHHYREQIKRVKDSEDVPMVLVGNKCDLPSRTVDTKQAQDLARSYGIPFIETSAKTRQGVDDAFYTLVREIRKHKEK
pIC50: −log10 of the molar value.
Overview of reported pIC50 across a group of compounds:
valueKind: pIC50

[[record]]
compound = "C=CC(=O)N1CC[C@H](C(=O)N(C)[C@H](C(=O)N[C@H]2Cc3cc(O)cc(c3)-c3ccc4c(c3)c(c(-c3c(F)cccc3CCOC)n4CC)CC(C)(C)COC(=O)[C@@H]3CCCN(N3)C2=O)C(C)C)C1"
endpointvalue = "5.00 to 6.00"

[[record]]
compound = "CCn1c(-c2cccnc2[C@H](C)OC)c2c3cc(ccc31)-c1cc(O)cc(c1)C[C@H](NS(=O)(=O)CC1CCC3(CNC3)C1)C(=O)N1CCC[C@H](N1)C(=O)OCC(C)(C)C2 (mixture of isomers)"
endpointvalue = "< 5.00"

[[record]]
compound = "CC#CC(=O)N1CC[C@H](C(=O)N(C)[C@H](C(=O)N[C@H]2Cc3nc(cs3)-c3ccc4c(c3)c(c(-c3cccnc3[C@H](C)OC)n4CC)CC(C)(C)COC(=O)[C@@H]3CCCN(N3)C2=O)C(C)C)C1"
endpointvalue = "5.00 to 6.00"

[[record]]
compound = "CCn1c(-c2cccnc2[C@H](C)OC)c2c3cc(ccc31)-c1csc(n1)C[C@H](NC(=O)[C@H](C(C)C)N(C)C(=O)N1CC3(CCN(C)CC3)C1)C(=O)N1CCC[C@H](N1)C(=O)OCC(C)(C)C2"
endpointvalue = "6.00 to 7.00"

[[record]]
compound = "C=CC(=O)N1CC(NC[C@H](C(=O)N[C@H]2Cc3cc(O)cc(c3)-c3ccc4c(c3)c(c(-c3cccnc3COC)n4CC)CC(C)(C)COC(=O)[C@@H]3CCCN(N3)C2=O)C(C)C)C1"
endpointvalue = "< 5.00"


###

biological target: KRAS G13D (Homo sapiens, UniProt P01116+P62937, G13D); assay: Disruption of BRAF RBD interaction with Ras (FRET / MOA assay, with Cyclophilin A); format: biochemical; conditions: KRAS G13D; read-out: KRAS G13D FRET data IC50
Sequence (P01116 1-169 isoform P01116-2 G13D limits assumed): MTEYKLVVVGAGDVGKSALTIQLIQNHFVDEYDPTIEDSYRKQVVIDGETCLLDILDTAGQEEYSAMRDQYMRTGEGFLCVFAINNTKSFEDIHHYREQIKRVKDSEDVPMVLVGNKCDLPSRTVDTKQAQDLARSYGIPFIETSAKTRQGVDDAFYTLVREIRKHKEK
Sequence (P62937 whole entry): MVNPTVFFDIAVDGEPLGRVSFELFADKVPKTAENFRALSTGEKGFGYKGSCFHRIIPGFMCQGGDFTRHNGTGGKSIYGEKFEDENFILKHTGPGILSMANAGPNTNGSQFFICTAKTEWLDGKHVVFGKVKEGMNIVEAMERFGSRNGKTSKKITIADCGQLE
pIC50: −log10 of the molar value.
valueKind: pIC50

[[record]]
compound = "CCn1c(-c2cccnc2[C@H](C)OC)c2c3cc(ccc31)-c1csc(n1)C[C@H](NC(=O)[C@H](C(C)C)N(C)C(=O)N(C)C1CC1)C(=O)N1CCC[C@H](N1)C(=O)OCC(C)(C)C2 [Example A353]"
endpointvalue = "6.00 to 7.00"

[[record]]
compound = "CCn1c(-c2cccnc2[C@H](C)OC)c2c3cc(ccc31)-c1csc(n1)C[C@H](NC(=O)[C@H](C(C)C)N(C)C(=O)N1CC(CN(C)C)(OC)C1)C(=O)N1CCC[C@H](N1)C(=O)OCC(C)(C)C2 (atropisomer, axis not shown) [Example A575]"
endpointvalue = "5.00 to 6.00"


###

Overview of reported pIC50 across a group of compounds:
Molecular target: KRAS G12S (Homo sapiens, UniProt P01116+P62937, G12S)
Assay: Disruption of BRAF RBD interaction with Ras (FRET / MOA assay, with Cyclophilin A)
Type: biochemical
Details: KRAS G12S FRET data, IC50
Source text: This protocol may also be executed substituting other Ras proteins or nucleotides. The purpose of this biochemical assay was to measure the ability of test compounds to facilitate ternary complex formation between a nucleotide-loaded K-Ras isoform and Cyclophilin A; the resulting ternary complex disrupts binding to a BRAF^RBD construct, inhibiting K-Ras signaling through a RAF effector. Data is reported as IC50 values. […]
pIC50: −log10 of the molar value.
valueKind: pIC50

[[record]]
compound = "CCn1c(-c2cnccc2COC)c2c3cc(ccc31)-c1cc(O)cc(c1)C[C@H](NC(=O)[C@H](C(C)C)N(C)C(=O)C1CCN(C)CC1)C(=O)N1CCC[C@H](N1)C(=O)OCC(C)(C)C2"
valuekind = "pIC50"
endpointvalue = "6.00 to 7.00"

[[record]]
compound = "CCn1c(-c2cnccc2COC)c2c3cc(ccc31)-c1cc(O)cc(c1)C[C@H](NC(=O)[C@H](C(C)C)N(C)S(C)(=O)=O)C(=O)N1CCC[C@H](N1)C(=O)OCC(C)(C)C2"
valuekind = "pIC50"
endpointvalue = "5.00 to 6.00"

[[record]]
compound = "CCn1c(-c2cccnc2[C@H](C)OC)c2c3cc(ccc31)-c1cc(O)cc(c1)C[C@H](NC(=O)[C@H](C(C)C)N(C)C(=O)[C@H]1C[C@@H](O)C1)C(=O)N1CCC[C@H](N1)C(=O)OCC(C)(C)C2 (atropisomer, axis not shown)"
valuekind = "pIC50"
endpointvalue = "7.00 to 8.00"

[[record]]
compound = "CCn1c(-c2cnccc2COC)c2c3cc(ccc31)-c1cc(O)cc(c1)C[C@H](NC(=O)[C@H](C(C)C)N(C)C(=O)[C@H]1CCCO1)C(=O)N1CCC[C@H](N1)C(=O)OCC(C)(C)C2"
valuekind = "pIC50"
endpointvalue = "6.00 to 7.00"

[[record]]
compound = "CCn1c(-c2cccnc2[C@H](C)OC)c2c3cc(ccc31)-c1cc(O)cc(c1)C[C@H](NC(=O)[C@H](C(C)C)N(C)C(=O)C1CCNCC1)C(=O)N1CCC[C@H](N1)C(=O)OCC(C)(C)C2"
valuekind = "pIC50"
endpointvalue = "6.00 to 7.00"

[[record]]
compound = "CCn1c(-c2cnccc2COC)c2c3cc(ccc31)-c1cc(O)cc(c1)C[C@H](NC(=O)[C@H](C(C)C)N(C)C(=O)[C@@H]1NC[C@@H]3C[C@@H]31)C(=O)N1CCC[C@H](N1)C(=O)OCC(C)(C)C2"
valuekind = "pIC50"
endpointvalue = "6.00 to 7.00"

[[record]]
compound = "CCn1c(-c2cccnc2[C@H](C)OC)c2c3cc(ccc31)-c1csc(n1)C[C@H](NC(=O)[C@H](C(C)C)N(C)C(=O)N1CCOC[C@@H]1CN(C)C)C(=O)N1CCC[C@H](N1)C(=O)OCC(C)(C)C2"
valuekind = "pIC50"
endpointvalue = "5.00 to 6.00"

[[record]]
compound = "CCn1c(-c2cccnc2[C@H](C)OC)c2c3cc(ccc31)-c1cc(O)cc(c1)C[C@H](NC(=O)[C@H](C(C)C)N(C)C(=O)C1CCN3CCOCC13)C(=O)N1CCC[C@H](N1)C(=O)OCC(C)(C)C2 (stereo partly drawn)"
valuekind = "pIC50"
endpointvalue = "6.00 to 7.00"

[[record]]
compound = "CCn1c(-c2cnccc2COC)c2c3cc(ccc31)-c1cc(O)cc(c1)C[C@H](NC(=O)[C@H](C(C)C)N(C)C(=O)[C@H]1CCN(C(=O)N(C)C)C1)C(=O)N1CCC[C@H](N1)C(=O)OCC(C)(C)C2"
valuekind = "pIC50"
endpointvalue = "5.00 to 6.00"

[[record]]
compound = "CCn1c(-c2cnccc2COC)c2c3cc(ccc31)-c1cc(O)cc(c1)C[C@H](NC(=O)[C@H](C(C)C)N(C)C(=O)[C@H](C)O)C(=O)N1CCC[C@H](N1)C(=O)OCC(C)(C)C2"
valuekind = "pIC50"
endpointvalue = "6.00 to 7.00"

[[record]]
compound = "CCn1c(-c2cccnc2[C@H](C)OC)c2c3cc(ccc31)-c1csc(n1)C[C@H](NC(=O)[C@H](C(C)C)N(C)C(=O)N1CC(N)(C#N)C1)C(=O)N1CCC[C@H](N1)C(=O)OCC(C)(C)C2"
valuekind = "pIC50"
endpointvalue = "6.00 to 7.00"

[[record]]
compound = "CCn1c(-c2ccccc2CCOC)c2c3cc(ccc31)-c1cc(O)cc(c1)C[C@H](NC(=O)[C@H](C(C)C)N(C)C(=O)CCN)C(=O)N1CCC[C@H](N1)C(=O)OCC(C)(C)C2"
valuekind = "pIC50"
endpointvalue = "5.00 to 6.00"

[[record]]
compound = "CCn1c(-c2cccnc2[C@H](C)OC)c2c3cc(ccc31)-c1csc(n1)C[C@H](NC(=O)N1CCCC1)C(=O)N1CCC[C@H](N1)C(=O)OCC(C)(C)C2"
valuekind = "pIC50"
endpointvalue = "6.00 to 7.00"

[[record]]
compound = "CCn1c(-c2cnccc2COC)c2c3cc(ccc31)-c1cc(O)cc(c1)C[C@H](NC(=O)[C@H](C(C)C)N(C)C(=O)[C@H]1CCN(C(=O)OC)C1)C(=O)N1CCC[C@H](N1)C(=O)OCC(C)(C)C2"
valuekind = "pIC50"
endpointvalue = "6.00 to 7.00"

[[record]]
compound = "CCn1c(-c2cccnc2[C@H](C)OC)c2c3cc(ccc31)-c1cc(O)cc(c1)C[C@H](NC(=O)[C@H](C(C)C)N(C)C(=O)[C@@H]1CC1(F)F)C(=O)N1CCC[C@H](N1)C(=O)OCC(C)(C)C2"
valuekind = "pIC50"
endpointvalue = "6.00 to 7.00"

[[record]]
compound = "C=CC(=O)N1CC[C@H](C(=O)N(C)[C@H](C(=O)N[C@H]2C[C@H]3CN(CCO3)c3ccc4c(c3)c(c(-c3cccnc3[C@H](C)OC)n4CC)CC(C)(C)COC(=O)[C@@H]3CCCN(N3)C2=O)C(C)C)C1 (racemic)"
valuekind = "pIC50"
endpointvalue = "5.00 to 6.00"

[[record]]
compound = "C=CC(=O)N1CC[C@H](C(=O)N(C)[C@H](C(=O)N[C@H]2Cc3cc(O)cc(c3)-c3ccc4c(c3)c(c(-c3cc(C)cnc3[C@H](C)OC)n4CC)CC(C)(C)COC(=O)[C@@H]3CCCN(N3)C2=O)C(C)C)C1"
valuekind = "pIC50"
endpointvalue = "7.00 to 8.00"

[[record]]
compound = "C=CC(=O)N1CCO[C@@]2(CCN(C(=O)N(C)[C@H](C(=O)N[C@H]3Cc4nc(cs4)-c4ccc5c(c4)c(c(-c4cccnc4[C@H](C)OC)n5CC(F)(F)F)CC(C)(C)COC(=O)C4CCCN(N4)C3=O)C(C)C)C2)C1 (stereo partly drawn)"
valuekind = "pIC50"
endpointvalue = "6.00 to 7.00"

